protocol_text: PK study in rats, single oral administration
Assay type: in vivo, rat
condition_context: rat, single oral administration, plasma, Table 2
reported_metric: Tmax (h)
Dear colleague, please return just the value in h, with no unit written.

Query: Fill in: Tmax of CCCNc1cc(C(F)(F)F)ccc1/C=C/C(=O)N[C@H](C)c1cc(F)c(NS(C)(=O)=O)c(F)c1 is ___
Response: 3.5

Query: I have this molecule here, CCCCc1cc(C(F)(F)F)ccc1/C=C/C(=O)N[C@H](C)c1cc(F)c(NS(C)(=O)=O)c(F)c1 , and I need its recorded Tmax.
Response: 2

Query: GET /values?readout=Tmax&item= C=Cc1cc(CNC(=O)/C=C/c2ccc(C(F)(F)F)cc2NC(C)C)cc(F)c1NS(C)(=O)=O
Response: 2

Query: Given the entry CCCOc1cc(C(F)(F)F)ccc1/C=C/C(=O)N[C@H](C)c1cc(F)c(NS(C)(=O)=O)c(F)c1 , report its measured Tmax.
Response: 3.5

---

target_of_assay: vanilloid receptor (Rattus norvegicus)
Construct: DRG nerve cells from the primary culture of 2 days were equilibrated by washing 4 times; endogenous in cells; host or cells: primary culture of dorsal root ganglion neurons from neonatal SD rats
Sequence (O35433 whole entry): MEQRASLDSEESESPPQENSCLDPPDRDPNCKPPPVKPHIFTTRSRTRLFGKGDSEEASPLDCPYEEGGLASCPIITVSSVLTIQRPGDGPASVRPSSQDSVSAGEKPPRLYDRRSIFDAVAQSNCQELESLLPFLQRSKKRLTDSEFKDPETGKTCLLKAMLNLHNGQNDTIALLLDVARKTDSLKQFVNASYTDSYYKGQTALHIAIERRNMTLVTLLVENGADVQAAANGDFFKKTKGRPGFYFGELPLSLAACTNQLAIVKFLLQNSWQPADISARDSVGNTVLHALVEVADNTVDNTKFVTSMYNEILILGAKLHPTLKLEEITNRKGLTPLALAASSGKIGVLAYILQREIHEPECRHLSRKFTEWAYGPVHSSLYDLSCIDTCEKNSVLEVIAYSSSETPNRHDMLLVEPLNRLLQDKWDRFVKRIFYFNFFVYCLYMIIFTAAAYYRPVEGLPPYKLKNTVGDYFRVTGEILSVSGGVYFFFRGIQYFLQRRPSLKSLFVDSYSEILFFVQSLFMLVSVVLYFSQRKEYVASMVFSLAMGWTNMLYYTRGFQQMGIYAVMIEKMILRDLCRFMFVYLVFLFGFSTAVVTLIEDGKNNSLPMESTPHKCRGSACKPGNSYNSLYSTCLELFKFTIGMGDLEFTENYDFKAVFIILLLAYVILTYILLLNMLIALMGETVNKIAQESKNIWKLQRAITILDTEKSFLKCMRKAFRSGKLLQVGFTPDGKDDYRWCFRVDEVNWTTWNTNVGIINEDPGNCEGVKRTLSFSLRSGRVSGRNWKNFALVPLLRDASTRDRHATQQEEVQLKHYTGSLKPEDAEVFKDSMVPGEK
protocol_text: 45Ca influx test (calcium uptake) in primary cultured DRG neurons, capsaicin 0.5 μM
Assay type: cell-based
condition_context: rat DRG neurons, capsaicin 0.5 μM, 45Ca; read-out: Antagonist Calcium Uptake Test (IC50)
In this scheme, each record receives a class according to its IC50; the ranges are low (below 100 nM), intermediate (100 nM to below 200 nM), high (200 nM or more)

Query: State the class of the molecule shown: CCNc1cc(F)ccc1/C=C/C(=O)N[C@H](C)c1cc(F)c(NS(C)(=O)=O)c(F)c1
Response: intermediate

Query: Consider CCOc1cc(C(F)(F)F)ccc1/C=C/C(=O)N[C@H](CC)c1cc(F)c(NS(C)(=O)=O)c(F)c1 (stereo in doubt) . To which IC50 class does it belong?
Response: high

Query: Which bin should I file CCCOc1cc(F)ccc1/C=C/C(=O)N[C@H](C)c1cc(F)c(NS(C)(=O)=O)c(F)c1 under?
Response: intermediate

Query: Tag the class for CCCNc1cc(C(F)(F)F)ccc1/C=C/C(=O)NCc1cc(C)c(NS(C)(=O)=O)c(F)c1
Response: low

Query: Just checking, what class would you give CCCc1cc(C(F)(F)F)ccc1/C=C/C(=O)NCc1cc(C)c(NS(C)(=O)=O)c(F)c1 here?
Response: high

Query: Note: place this molecule into its band. Item: CCCNc1cc(F)ccc1/C=C/C(=O)N[C@H](C)c1cc(F)c(NS(C)(=O)=O)c(F)c1
Response: intermediate

Query: Into which category would you place C[C@@H](NC(=O)/C=C/c1ccc(C(F)(F)F)cc1OCC1CCCCC1)c1cc(F)c(NS(C)(=O)=O)c(F)c1 ?
Response: high

Query: Using the reported IC50, which band applies to CCC(C)Oc1cc(C(F)(F)F)ccc1/C=C/C(=O)N[C@H](C)c1cc(F)c(NS(C)(=O)=O)c(F)c1 (stereo partly drawn) ?
Response: low

Query: Which class is correct for the following molecule? CCCNc1cc(C(F)(F)F)ccc1CCC(=O)N[C@H](C)c1cc(F)c(NS(C)(=O)=O)c(F)c1
Response: intermediate

---

target_of_assay: vanilloid receptor (Rattus norvegicus)
Construct: DRG nerve cells from the primary culture of 2 days were equilibrated by washing 4 times; endogenous in cells; host or cells: primary culture of dorsal root ganglion neurons from neonatal SD rats
protocol_text: 45Ca influx test (calcium uptake) in primary cultured DRG neurons, capsaicin 0.5 μM
Assay type: cell-based
condition_context: rat DRG neurons, capsaicin 0.5 μM, 45Ca; read-out: Antagonist Calcium Uptake Test (IC50)
Provide the recorded pIC50 for the entries that follow.
Please keep in mind that pIC50 is minus log10 of the molar concentration; only the number is needed.

Query: Entry under review: CCCNc1cc(C(F)(F)F)ccc1/C=C/C(=O)NCc1cc(F)c(NS(C)(=O)=O)c(F)c1 . Reported pIC50?
Response: 6.77

Query: Fill in: pIC50 of CCCCNc1cc(C(F)(F)F)ccc1/C=C/C(=O)N[C@H](C)c1cc(F)c(NS(C)(=O)=O)c(F)c1 is ___
Response: 6.92

Query: Could you share which pIC50 value was measured for CCCc1cc(F)ccc1/C=C/C(=O)N[C@H](C)c1cc(F)c(NS(C)(=O)=O)c(F)c1 ?
Response: 6.77

Query: Fill blank: measured pIC50 of the compound CCCCOc1cc(C(F)(F)F)ccc1/C=C/C(=O)N[C@H](CC)c1cc(F)c(NS(C)(=O)=O)c(F)c1 (stereo in doubt) is ____.
Response: 5.96

Query: Would you mind telling me what pIC50 value was observed for CCCCOc1cc(F)ccc1/C=C/C(=O)NCc1cc(F)c(NS(C)(=O)=O)c(F)c1 ?
Response: 6.01

Query: Entry CC(C)Oc1cc(C(F)(F)F)ccc1/C=C/C(=O)N[C@H](C)c1cc(F)c(NS(C)(=O)=O)c(F)c1 : reported pIC50 = ?
Response: 7.33

Query: Record request: pIC50 value, item CCCc1cc(C(F)(F)F)ccc1/C=C/C(=O)N[C@H](CC)c1cc(F)c(NS(C)(=O)=O)c(F)c1
Response: 6.77

Query: Look at this compound and give its reported pIC50. CCCCOc1cc(C(F)(F)F)ccc1/C=C/C(=O)N[C@H](C)c1cc(F)c(NS(C)(=O)=O)c(F)c1
Response: 6.96

Query: Returns the measured pIC50 for the input compound. Input: CCCNc1cc(C(F)(F)F)ccc1CCC(=O)NCc1cc(F)c(NS(C)(=O)=O)c(F)c1
Response: 6.46

Query: Fill in the blank: the reported pIC50 of CCCOc1cc(C(F)(F)F)ccc1/C=C/C(=O)NCc1cc(F)c(NS(C)(=O)=O)c(F)c1 is ____.
Response: 6.42

Query: State the recorded pIC50 for this entry: CC(C)Cc1cc(C(F)(F)F)ccc1/C=C/C(=O)N[C@H](C)c1cc(F)c(NS(C)(=O)=O)c(F)c1
Response: 7.03

Query: Need pIC50, item C#Cc1cc(CNC(=O)/C=C/c2ccc(C(F)(F)F)cc2CCC)cc(F)c1NS(C)(=O)=O
Response: 7.04

Query: Look at this compound and give its reported pIC50. CCOc1cc(C(F)(F)F)ccc1/C=C/C(=O)NCc1cc(F)c(NS(C)(=O)=O)c(C(F)(F)F)c1
Response: 5.62

Query: Endpoint output: pIC50 of CCCCNc1cc(F)ccc1/C=C/C(=O)NCc1cc(F)c(NS(C)(=O)=O)c(F)c1 . Value?
Response: 6.74

Query: Dear colleague, I am looking for the recorded pIC50 of the following compound: C[C@@H](NC(=O)/C=C/c1ccc(C(F)(F)F)cc1N1CCCCC1)c1cc(F)c(NS(C)(=O)=O)c(F)c1
Response: 6.47

Query: Given the compound CS(=O)(=O)Nc1c(F)cc(CNC(=O)/C=C/c2ccc(C(F)(F)F)cc2N2CCCCC2)cc1F , what is its reported pIC50?
Response: 5.48

Query: Tell me the measured pIC50 of CCCNc1cc(C(F)(F)F)ccc1/C=C/C(=O)NCc1cc(F)c(NS(C)(=O)=O)c(C#N)c1 , please.
Response: 6.92

Query: Entry under review: CCNc1cc(C(F)(F)F)ccc1/C=C/C(=O)NCc1cc(F)c(NS(C)(=O)=O)c(F)c1 . Reported pIC50?
Response: 7.08

Query: Field request: pIC50 | item: CCCCc1cc(C(F)(F)F)ccc1/C=C/C(=O)N[C@H](C)c1ccc(NS(C)(=O)=O)c(F)c1
Response: 7.34

Query: // pIC50 lookup, key: CCCc1cc(C(F)(F)F)ccc1/C=C(\C)C(=O)N[C@H](C)c1cc(F)c(NS(C)(=O)=O)c(F)c1
Response: 6.28

Query: For the compound shown here, CCCOc1cc(C(F)(F)F)ccc1/C=C/C(=O)N[C@H](C)c1cc(F)c(NS(C)(=O)=O)c(F)c1 , give the reported pIC50.
Response: 6.92

Query: Please report the recorded pIC50 for CCC(C)Oc1cc(F)ccc1/C=C/C(=O)NCc1cc(F)c(NS(C)(=O)=O)c(F)c1 (stereo not shown) .
Response: 6.26
